Measured values drawn from the Human Domainome abundance scans (Beltran et al. 2025) for this set.

Quick reference: abundance fitness of the listed items.
B1: POU domain, class 2, transcription factor 2, residues 200 to 269; numbered along this chain, P09086 (parent)
chain: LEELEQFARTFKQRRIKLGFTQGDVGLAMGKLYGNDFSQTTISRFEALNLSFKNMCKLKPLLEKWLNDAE

Variants of: B1
Experiment: abundance fitness (aPCA) (normalised: wild type 0, dead -1); higher = more abundant; growth selection in yeast, the domain comes from the species named
Conditions: Homo sapiens
VALUE_KIND: abundance fitness

In [3]: df
Out[3]:
                            sequence_content  result_number
 0  LEELEQFARTFKQRRIKLGFTQGDVGLAMGKLYGNDFSQTTISRFEALNLSFKNMCKLKPLLEDWLNDAE [K64D]          0.003
 1  LEELEQFARTFKQRRIKVGFTQGDVGLAMGKLYGNDFSQTTISRFEALNLSFKNMCKLKPLLEKWLNDAE [L18V]         -0.234
 2  LEELEQFARTFKQRRIKLGFTQGDVGLAMGKLYGNDFSQTDISRFEALNLSFKNMCKLKPLLEKWLNDAE [T41D]          0.029
 3  LEELEQNARTFKQRRIKLGFTQGDVGLAMGKLYGNDFSQTTISRFEALNLSFKNMCKLKPLLEKWLNDAE [F7N]          -0.48
 4  LEELEQFARTFKQRRIKLGFTQGQVGLAMGKLYGNDFSQTTISRFEALNLSFKNMCKLKPLLEKWLNDAE [D24Q]          0.003
 5  LEELEQFARTFKQRRIKLGFTQGDVGLDMGKLYGNDFSQTTISRFEALNLSFKNMCKLKPLLEKWLNDAE [A28D]          0.024
 6  LEELEQFARTFKQRRIKLGFTQGDVGLAMGKLYGNDFSQTTISRFEALNLSFKNMCKNKPLLEKWLNDAE [L58N]         -0.227
 7  LEELEQFARTFKQRRIKLGFTQGDVGLAMGKLYGNDFSQTTISRFEALNLSFKNMCKLKPLLEKWWNDAE [L66W]         -0.232
 8  LEELEQFARTFKQRRIKLGFTQGDVGLAMGKLYGNDFSQTTWSRFEALNLSFKNMCKLKPLLEKWLNDAE [I42W]         -0.818
 9  LEELEQFARTFKQRRIKLGFTQGDVGLAMGKLYGNDFSQVTISRFEALNLSFKNMCKLKPLLEKWLNDAE [T40V]          0.068
10  LEELEQFARTFKQRRIKLGFTQGRVGLAMGKLYGNDFSQTTISRFEALNLSFKNMCKLKPLLEKWLNDAE [D24R]         -0.177
11  LEELEQFARTFKQRRIKLGFTQGDVGLAMGKLYGNDFSQTTISRFEALNLSFKNMCKLKPLLEKWLNDLE [A69L]         -0.034
12  VEELEQFARTFKQRRIKLGFTQGDVGLAMGKLYGNDFSQTTISRFEALNLSFKNMCKLKPLLEKWLNDAE [L1V]         -0.061
13  LGELEQFARTFKQRRIKLGFTQGDVGLAMGKLYGNDFSQTTISRFEALNLSFKNMCKLKPLLEKWLNDAE [E2G]         -0.046
14  LEELEQFARTWKQRRIKLGFTQGDVGLAMGKLYGNDFSQTTISRFEALNLSFKNMCKLKPLLEKWLNDAE [F11W]         -0.209
15  LEELEQFARTFKQRRIKLGFTQGWVGLAMGKLYGNDFSQTTISRFEALNLSFKNMCKLKPLLEKWLNDAE [D24W]         -0.285
16  LEELEQFARTFKQRRIKLGFTQGDVGLAMGKLYGNDFSQTTIERFEALNLSFKNMCKLKPLLEKWLNDAE [S43E]         -0.018
17  LEELEQFARTFKQRRIKLGFTQGDVGLAMGKLYGNDFSQTTISRFLALNLSFKNMCKLKPLLEKWLNDAE [E46L]         -0.904
18  LEELEQFARTFKQRRIKLGFTQGDVGLAMGKLYGNDFSQTTISRFEALNLSFKNMCKLKPLLEIWLNDAE [K64I]         -0.158
19  LEELEQFARTFKQRRIKLGFTQGDVGLAMGKLYGNDFSQTTISRFEALNLSFKGMCKLKPLLEKWLNDAE [N54G]         -0.017
20  LEELEQFARTFKQRRIKLGFTQGDVGLAMGKLYGNDFSQTTISQFEALNLSFKNMCKLKPLLEKWLNDAE [R44Q]          0.125
21  LEELEQFARTFKQRRIKLGFTQGDHGLAMGKLYGNDFSQTTISRFEALNLSFKNMCKLKPLLEKWLNDAE [V25H]         -0.996
